system-under-test: SMYD3 (Homo sapiens (Human), UniProt Q9H7B4)
Sequence (Q9H7B4 whole entry): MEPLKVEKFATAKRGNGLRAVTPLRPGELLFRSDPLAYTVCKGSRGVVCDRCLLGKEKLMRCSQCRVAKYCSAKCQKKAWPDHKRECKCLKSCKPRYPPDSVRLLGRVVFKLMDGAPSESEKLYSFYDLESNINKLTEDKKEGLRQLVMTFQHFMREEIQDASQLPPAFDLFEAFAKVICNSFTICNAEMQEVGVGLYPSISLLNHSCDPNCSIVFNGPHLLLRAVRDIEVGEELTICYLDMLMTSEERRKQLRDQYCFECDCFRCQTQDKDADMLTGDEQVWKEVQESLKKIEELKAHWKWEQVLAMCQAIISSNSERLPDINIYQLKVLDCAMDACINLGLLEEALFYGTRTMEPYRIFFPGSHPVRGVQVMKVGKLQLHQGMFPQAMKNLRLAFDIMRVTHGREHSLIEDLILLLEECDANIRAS
assay: SMYD3 cell assay (Trimethyl-MEKK2 In-Cell Western in 293T/17 cells)
Assay type: cell-based
condition: average of n = 1 to n = 50; read-out: SMYD3 Cell IC50
result-type: IC50 (µM)

1) CCN1CCN(S(=O)(=O)N2[C@@H]3CCC[C@@H]2CC(NC(=O)c2cc(C4CC4)on2)C3)CC1 (stereo partly shown) :: 2.42
2) CN(C)C1CCN(CCS(=O)(=O)N2[C@@H]3CC[C@H]2C[C@@H](NC(=O)c2cc(C4CC4)on2)C3)C1 (stereo partly shown) :: 0.532
3) C[C@H]1CN(S(=O)(=O)N2CCNCC2)[C@@H](C)C[C@H]1NC(=O)c1cc(C2CC2)on1 :: 0.203
4) O=C(N[C@H]1C[C@H]2CC[C@@H](C1)N2S(=O)(=O)CCNCCN1CCOCC1)c1cc(C2CC2)on1 :: 1.82
5) C[C@H]1CN(S(=O)(=O)NC2CCN(C)CC2)CC[C@H]1NC(=O)c1cc(C2CC2)on1 :: 0.731
6) C[C@H]1CN(S(=O)(=O)NC2CCN(Cc3ccccc3)CC2)CC[C@H]1NC(=O)c1cc(C2CC2)on1 :: 1.55
7) COCCCN1CCC(CS(=O)(=O)N2CC[C@H](NC(=O)c3cc(C4CC4)on3)C[C@@H]2Cc2ccccc2)CC1 :: 3.47

---

system-under-test: SMYD3 (Homo sapiens (Human), UniProt Q9H7B4)
assay: SMYD3 biochemical assay (SPA, 3H-SAM methylation of MEKK2 protein substrate)
condition: read-out: SMYD3 Biochem IC50*
pIC50: −log10 of the molar value.
result-type: pIC50

1. CC1CNCCN1S(=O)(=O)N1[C@@H]2CC[C@H]1C[C@@H](NC(=O)c1cc(C3CC3)on1)C2 (stereo partly shown) [compound 901] :: 7.82
2. CCN1CCC(CS(=O)(=O)N2[C@@H]3CC[C@H]2C[C@@H](NC(=O)c2cc(C4CC4)on2)C3)CC1 [compound 785] :: 8.87
3. O=C(N[C@H]1C[C@H]2CC[C@@H](C1)N2S(=O)(=O)CC1CCN(Cc2ccc(F)cc2)CC1)c1cc(C2CC2)on1 [compound 778] :: 8.93
4. O=C(N[C@H]1C[C@H]2CC[C@@H](C1)N2S(=O)(=O)NC1CCNCC1)c1cc(C2CC2)on1 [compound 897] :: 7.85
5. CN(C)[C@H]1CC[C@@H](S(=O)(=O)N2[C@@H]3CC[C@H]2C[C@@H](NC(=O)c2cc(C4CC4)on2)C3)CC1 [compound 771] :: 9.03
6. C[C@@H](C1CCN(C)CC1)S(=O)(=O)N1[C@@H]2CC[C@H]1C[C@@H](NC(=O)c1cc(C3CC3)on1)C2 [compound 816] :: 8.54
7. CC(C)CCN(C)C1CCN(S(=O)(=O)N2[C@@H]3CC[C@H]2C[C@@H](NC(=O)c2cc(C4CC4)on2)C3)CC1 [compound 846] :: 8.27

---

system-under-test: SMYD3 (Homo sapiens (Human), UniProt Q9H7B4)
assay: SMYD3 biochemical assay (SPA, 3H-SAM methylation of MEKK2 protein substrate)
condition: Table 2A; read-out: SMYD3 Biochem IC50
Output: class label from IC50. Mapping: lo = under 8 nM, med = from 8 nM up to 20 nM, hi = 20 nM and over

1) C[C@H]1CN(S(=O)(=O)CCCN)[C@@H](C)C[C@H]1NC(=O)c1cc(C2CC2)on1 [compound 601] :: med
2) C[C@H]1C[C@@H](NC(=O)c2cc(C3CC3)on2)CCN1S(=O)(=O)CC1CCN(CCN2CCCCC2)CC1 [compound 553] :: lo
3) O=C(N[C@H]1C[C@H]2CC[C@@H](C1)N2S(=O)(=O)CC1CCN(CCCC(F)(F)F)CC1)c1cc(C2CC2)on1 [Cpd. No. 528] :: lo
4) C[C@H]1CNCCN1S(=O)(=O)N1CC[C@H](NC(=O)c2cc(C3CC3)on2)C[C@@H]1C [compound 624] :: hi
5) CN(C)CCNCCS(=O)(=O)N1[C@@H]2CC[C@H]1C[C@@H](NC(=O)c1cc(C3CC3)on1)C2 [compound 599] :: med
6) CCc1cc(C(=O)N[C@H]2C[C@H]3CC[C@@H](C2)N3S(=O)(=O)CC2CCNCC2)no1 [Cpd. No. 562] :: lo
7) C[C@H]1C[C@@H](NC(=O)c2cc(C3CC3)on2)CCN1S(=O)(=O)N1CC2CC(C1)N2 [compound 588] :: med
8) O=C(N[C@H]1C[C@H]2CC[C@@H](C1)N2S(=O)(=O)CC1CCNCC1)c1cc(C2CC2)on1 [Cpd. No. 543] :: lo
9) O=C(N[C@H]1C[C@H]2CC[C@@H](C1)N2S(=O)(=O)N1C2CCC1CNC2)c1cc(C2CC2)on1 [compound 602] :: med
10) CCN1CCN(S(=O)(=O)N2CC[C@H](NC(=O)c3cc(C4CC4)on3)C[C@@H]2C)CC1 [compound 617] :: hi
11) C[C@H]1CN(S(=O)(=O)CC2CCN(C)CC2)CC[C@H]1NC(=O)c1cc(C2CC2)on1 [compound 625] :: hi
12) C[C@H]1CN(S(=O)(=O)N2CCNCC2)CC[C@H]1NC(=O)c1cc(C2CC2)on1 [compound 621] :: hi

---

system-under-test: SMYD3 (Homo sapiens (Human), UniProt Q9H7B4)
assay: SMYD3 biochemical assay (SPA, 3H-SAM methylation of MEKK2 protein substrate)
condition: read-out: SMYD3 Biochem IC50 (μM)*
result-type: IC50 (µM)

1. C[C@@H]1C[C@@H](NC(=O)c2cc(C3CC3)on2)CCN1C(=O)CC1CCNCC1 :: 0.862
2. CC1CN(C(=O)CCN)CCC1NC(=O)c1cc(C2CC2)on1 (centres unmarked) :: 6.81
3. O=C(NC1CCN(C(=O)CC2CCNCC2)CC1)c1cc(C2CC2)on1 :: 1.06
4. NC[C@H](Cc1ccc(O)c(Cl)c1)C(=O)N1CCC(NC(=O)c2cc(C3CC3)on2)CC1 :: 7.16

---

Each item that follows carries a reported IC50.
system-under-test: SMYD3 (Homo sapiens (Human), UniProt Q9H7B4)
assay: SMYD3 biochemical assay (SPA, 3H-SAM methylation of MEKK2 protein substrate)
condition: read-out: SMYD3 Biochem IC50 (μM)*
Excerpt: S-adenosylmethionine (SAM), S-adenosylhomocysteine (SAH), Tris, Tween20, dimethylsulfoxide (DMSO), bovine skin gelatin (BSG), and Tris(2-carboxyethyl)phosphine hydrochloride solution (TCEP) were purchased from Sigma-Aldrich at the highest level of purity possible. ^3H-SAM was purchase from American Radiolabeled Chemicals with a specific activity of 80 Ci/mmol. 384-well opaque white OptiPlates and SPA beads (Perkin Elmer, catalog # RPNQ0013) were purchased from PerkinElmer. […]
result-type: IC50 (µM)

1. C[C@H](N)C(=O)NC[C@H](Cc1ccc(O)c(I)c1)C(=O)N1CCC(NC(=O)c2cc(C3CC3)on2)CC1 [compound 62] :: 1.33
2. Cc1ccc(C[C@@H](CN)C(=O)N2CCC(NC(=O)c3cc(C4CC4)on3)CC2)cc1O [compound 39] :: 14
3. C[C@@H]1CN(C(=O)[C@H]2CC[C@H](N)CC2)CCC1NC(=O)c1cc(C2CC2)on1 (stereo partly shown) [compound 25] :: 0.299

---

Each item that follows carries a reported IC50.
system-under-test: SMYD3 (Homo sapiens (Human), UniProt Q9H7B4)
assay: SMYD3 biochemical assay (SPA, 3H-SAM methylation of MEKK2 protein substrate)
condition: read-out: SMYD3 Biochem IC50 (μM)*
result-type: IC50 (µM)

1) C[C@@H]1CC(NC(=O)c2cc(C3CC3)on2)CCN1C(=O)C1CCCNC1 (stereo partly drawn) :: 2.52
2) C[C@@H]1CC(NC(=O)c2cc(C3CC3)on2)CCN1C(=O)[C@H]1CCC[C@@H](N)C1 (stereo partly drawn) :: 1.99
3) C[C@@H]1CC(NC(=O)c2cc(C3CC3)on2)CCN1C(=O)[C@H]1CC[C@H](N(C)C)CC1 (stereo partly drawn) :: 1.65
4) C[C@H]1C[C@H](NC(=O)c2cc(C3CC3)on2)CCN1C(=O)CC(CN)c1ccccc1 (stereo partly drawn) :: 4.67
5) C[C@H]1CC(NC(=O)c2cc(C3CC3)on2)CCN1C[C@H]1CC[C@H](N)CC1 (stereo partly drawn) :: 4.31
6) N[C@H]1CC[C@@H](C(=O)N2[C@@H]3CC[C@H]2C[C@@H](NC(=O)c2cc(C4CC4)on2)C3)CC1 :: 0.351
7) NCCC(=O)NC[C@@H](Cc1ccc(O)c(I)c1)C(=O)N1CCC(NC(=O)c2cc(C3CC3)on2)CC1 :: 1.64
8) C[C@@H]1C[C@H](NC(=O)c2cc(C3CC3)on2)CCN1S(=O)(=O)N1CCCC1 :: 4.14
9) O=C(N[C@H]1CCN(S(=O)(=O)CCN2CCCC2)[C@H](Cc2ccccc2)C1)c1cc(C2CC2)on1 :: 1.15
10) C[C@H]1CN(C(=O)[C@@H](N)Cc2ccc(O)cc2)CCC1NC(=O)c1cc(C2CC2)on1 (stereo partly drawn) :: 2.32
